Assay: in vitro
Assay type: cell-based, human
Details: human
Quantity Kind: mortality at 0.25 ug/ml (%)
Please state the figure in %; there is no need to write the unit.

Documented mortality at 0.25 ug/ml of COc1cccc2c1C(=O)c1c(O)c3c(c(O)c1C2=O)C[C@@](O)(C(=O)CO)C[C@@H]3O[C@H]1C[C@H](N)[C@H](O)[C@H](C)O1 : 20
